Experiment: yeast display, Sf9 membrane polyspecificity reagent, FACS + sequencing; frameworks hold sequencing errors
TEST_READOUT: polyreactivity (PSR sort gate)

Would you please look over these solved cases?
{"RESIDUES": "QVQLVESGGGLVQAGGSLRLSCAASGRTFRAYAMGWYRQAPGKEMELVAGITSGGSTNYADSVKGRFTISRDNAKNTVYLQMNSLKPEDTAVYYCAARRGTYRYRYDYWGQGTQVTVSS", "RECORDED_MEASUREMENT": "high polyreactivity"}
{"RESIDUES": "QVQLVESGGGLVQAGGSLRLSCAASGRTFVRNTMGWYRQAPGKEREFVAAISRSGGNTNYADSVKGRFTISRDNAKNTVYLQMNSLKPEDTAVYYCATRAGYQVYPNKMNYWGQGTQVTVSS", "RECORDED_MEASUREMENT": "high polyreactivity"}
{"RESIDUES": "QVQLVESGGGLVQAGGSLRLSCAASVFIFPHYTMGWYRQAPGKERELVAAISSSGGSTYYADSVKGRFTISRYNAKNTVYLQMNSLKPEDSADYYCPGPLPYYGQYDYWGQGTQVTVSS", "RECORDED_MEASUREMENT": "low polyreactivity"}
{"RESIDUES": "QVQLVESGGGLVQAGGSLRLSCAASGSTFRTYAMVWYRQAPGKERELVAAIRSRGGSTYYADSVKGRFTISRDNAKNTVYLQMNSLKPEDTAVYYCNAVPRWSYVDEDSWGQGTQVTVSS", "RECORDED_MEASUREMENT": "high polyreactivity"}
{"RESIDUES": "QVQLVESGGGLVQAGGSLRLSCAASGRTFAYNTMGWYRQAPGKERELVAVISSGGRTYYADSGKGRFTMSRDNAKNTVYLQMNSLKPEDTAVYYCAADGYPYKYDYWGQGTQVTVSS", "RECORDED_MEASUREMENT": "high polyreactivity"}

Quick one: polyreactivity (PSR sort gate) for QVQLVESVGGLVQAGGSLRIICAASGITLAWYSMGWYRKAPGKERELVASISSSGSTNYADSVKGRFTISRDNAKNTVYLQMNSLIPEETAVYYCNKDYLLLHYYIYVIEGDYWGQGTQVTVSS ?
low polyreactivity

Would you mind telling me what polyreactivity (PSR sort gate) value was observed for QVQLVESGGGLVQAGGSLRLSCAASGRIVWFYTMGWYRQAPGKERELVAAISDSAGSTYYADSVKGRFTISRDNAKNTVYLQMNSLKPEDTAVYYCAADGWWQYDYWGQGTQVTVSS ?
low polyreactivity
